# study.system: T1, human HVEM extracellular domain fused with an Fc fragment at the C-terminus (human, UniProt Q92956 39-202)
# T1 construct: extracellular domain; Bought; also called hHVEM; not shown: Fc fragment at the C-terminus
# T1 sequence (looked up): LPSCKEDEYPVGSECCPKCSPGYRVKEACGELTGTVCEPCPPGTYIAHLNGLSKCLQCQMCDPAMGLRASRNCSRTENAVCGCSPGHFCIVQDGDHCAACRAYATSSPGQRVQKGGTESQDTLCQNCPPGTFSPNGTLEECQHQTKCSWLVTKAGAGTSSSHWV
# assay.comment: ELISA on coated target-Fc, Table 5-1
# Description: Nunc MaxiSorp 96-well plates (Thermofisher) were coated with target proteins (1 μg/ml), and then blocked with 2% BSA-PBS buffer for one hour. Serial dilutions of the LIGHT muteins were added with a maximum concentration of 200 ng/ml. […] The plates were read at 450 nm on a SpectraMax M5 microplate reader (Molecule Devices). The ELISA results were analyzed using GraphPad Prism 9.0 software and the EC50s (half maximal effective concentration) were summarized in Table 5-1 and Table 5-2.
measurement.name: binding result

LIGHT-5 (ligand, Printed mutations: T161P, R189S, W198Q, R228L; Soluble protein carries an N-terminal His tag) DGPAGSWEQLIQERRSHEVNPAAHLTGANSSLTGSGGPLLWETQLGLAFLRGLSYHDGALVVTKAGYYYIYSKVQLGGVGCPLGLASPITHGLYKRTPRYPEELELLVSQQSPCGSATSSSRVWQDSSFLGGVVHLEAGEKVVVRVLDERLVRLLDGTRSYFGAFMV
no binding
LIGHT-1 (ligand, Printed mutations: V152M, W198Q, R228L; Soluble protein carries an N-terminal His tag) DGPAGSWEQLIQERRSHEVNPAAHLTGANSSLTGSGGPLLWETQLGLAFLRGLSYHDGALVVTKAGYYYIYSKVQLGGMGCPLGLASTITHGLYKRTPRYPEELELLVSQQSPCGRATSSSRVWQDSSFLGGVVHLEAGEKVVVRVLDERLVRLLDGTRSYFGAFMV
no binding
LIGHT-2 (ligand, Printed mutations: R189S, W198Q, R228L; Soluble protein carries an N-terminal His tag) DGPAGSWEQLIQERRSHEVNPAAHLTGANSSLTGSGGPLLWETQLGLAFLRGLSYHDGALVVTKAGYYYIYSKVQLGGVGCPLGLASTITHGLYKRTPRYPEELELLVSQQSPCGSATSSSRVWQDSSFLGGVVHLEAGEKVVVRVLDERLVRLLDGTRSYFGAFMV
no binding
